- experiment description: 3-NOP to adsorbent ratio study
- Type: physicochemical
- protocol conditions: 3-NOP:Adsorbent 1:2, distilled water at 1% 3-NOP loading, 24 hr, HPLC
measured quantity: Average Integrated Area of 3-NOP in solution

{"smiles string": "NCCCC[C@H](N)C(=O)O", "result value": 2308.9}
{"smiles string": "N[C@@H](CCC(=O)O)C(=O)O", "result value": 2452.5}
{"smiles string": "N=C(N)NCCC[C@H](N)C(=O)O", "result value": 2372.8}
{"smiles string": "O=[N+]([O-])OCCCO", "result value": 2566.4}
